Provide the recorded GI50 for the entries that follow.
system: Melanoma panel; test: NCI60 five-dose screen, panel mean; type: cell-based; details: Homo sapiens; mean over Melanoma panel
Numbers only, in nM.

Consider the following illustrative entries.
{"test_smiles": "O=c1cc(-c2ccccc2)oc2cc(OCCCC[P+](c3ccccc3)(c3ccccc3)c3ccccc3)cc(O)c12", "study_system": "Melanoma panel", "readout_kind": "GI50", "observed": 300}
{"test_smiles": "O=c1cc(-c2ccccc2)oc2cc(OCCCC[P+](C3CCCCC3)(C3CCCCC3)C3CCCCC3)cc(O)c12", "study_system": "Melanoma panel", "readout_kind": "GI50", "observed": 550}

Would you mind listing GI50 for each of the following compounds?
1. Cc1ccc([P+](CCCCOc2cc(O)c3c(=O)cc(-c4ccccc4)oc3c2)(c2ccc(C)cc2)c2ccc(C)cc2)cc1
2. COc1ccc([P+](CCCCOc2cc(O)c3c(=O)cc(-c4ccccc4)oc3c2)(c2ccc(OC)cc2)c2ccc(OC)cc2)cc1
3. O=c1cc(-c2ccccc2)oc2cc(OCCCC[P+](c3ccccc3)(c3ccccc3)c3ccccn3)cc(O)c12
4. Cc1ccccc1[P+](CCCCOc1cc(O)c2c(=O)cc(-c3ccccc3)oc2c1)(c1ccccc1C)c1ccccc1C
5. COc1c(C)cc([P+](CCCCOc2cc(O)c3c(=O)cc(-c4ccccc4)oc3c2)(c2cc(C)c(OC)c(C)c2)c2cc(C)c(OC)c(C)c2)cc1C
6. O=c1cc(-c2ccccc2)oc2cc(OCCCC[P+](c3ccc(F)cc3)(c3ccc(F)cc3)c3ccc(F)cc3)cc(O)c12

Result:
1: 320; 2: 350; 3: 520; 4: 270; 5: 310; 6: 1740
